B1: tRNA (parent)
chain: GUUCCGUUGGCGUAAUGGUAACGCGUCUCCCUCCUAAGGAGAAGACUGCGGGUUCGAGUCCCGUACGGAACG

variants of: B1; test: yeast fitness relative to wild type (ratio to wild type); higher = fitter; tRNA-Arg(CCU), competitive growth, 37 C, YPD
Fewer inactive variants are shown than the library holds.
Label Fulfilled when yeast fitness >= 0.6; otherwise Not fulfilled.

{"variant-key": "U2G A36G A69U", "qualitative-label": "Not fulfilled"}
{"variant-key": "U19C C31U G56A G68C", "qualitative-label": "Not fulfilled"}
{"variant-key": "G10A C33U G56C C66A", "qualitative-label": "Not fulfilled"}
{"variant-key": "G25C G44C C49U", "qualitative-label": "Not fulfilled"}
{"variant-key": "C27U A37U U47G", "qualitative-label": "Not fulfilled"}
{"variant-key": "U7C G56C", "qualitative-label": "Fulfilled"}
{"variant-key": "U3C G12A C30U C46G", "qualitative-label": "Not fulfilled"}
{"variant-key": "C22G C30U A37G A43U G68U", "qualitative-label": "Not fulfilled"}
{"variant-key": "G9C A20G U35C A36G G58A G67A", "qualitative-label": "Not fulfilled"}
{"variant-key": "C30U A43C", "qualitative-label": "Fulfilled"}
{"variant-key": "C4U U16A U26C C27A U47C", "qualitative-label": "Not fulfilled"}
{"variant-key": "A21U A45U G50C U64G", "qualitative-label": "Not fulfilled"}
{"variant-key": "C5A A14G C31U", "qualitative-label": "Fulfilled"}
{"variant-key": "A20G A37G G38A C55U U59G", "qualitative-label": "Not fulfilled"}
{"variant-key": "A20G G67A", "qualitative-label": "Fulfilled"}
{"variant-key": "C29G U35A G58C C66U", "qualitative-label": "Not fulfilled"}
{"variant-key": "C5G U47A G58A", "qualitative-label": "Not fulfilled"}
{"variant-key": "U8C A42G A70C", "qualitative-label": "Not fulfilled"}
{"variant-key": "A42U A45U", "qualitative-label": "Fulfilled"}
{"variant-key": "A21C A36C G56A", "qualitative-label": "Not fulfilled"}
{"variant-key": "U3A A37C C60A A70G", "qualitative-label": "Not fulfilled"}
{"variant-key": "U7A C27G C34U", "qualitative-label": "Not fulfilled"}
{"variant-key": "G50C G68C", "qualitative-label": "Fulfilled"}
{"variant-key": "U8A C11U G25C G39C", "qualitative-label": "Not fulfilled"}
{"variant-key": "G6C G12C C29A", "qualitative-label": "Not fulfilled"}
{"variant-key": "G10C C34A A57U G67C", "qualitative-label": "Fulfilled"}
{"variant-key": "G6C A21G U32C G48A", "qualitative-label": "Fulfilled"}
{"variant-key": "A15U G18A A42U", "qualitative-label": "Not fulfilled"}
{"variant-key": "U59G A65G", "qualitative-label": "Fulfilled"}
{"variant-key": "C33G G44A U47C A57G", "qualitative-label": "Not fulfilled"}
{"variant-key": "C27G A37G G52U", "qualitative-label": "Not fulfilled"}
{"variant-key": "C11G A14G A37G G44A", "qualitative-label": "Not fulfilled"}
{"variant-key": "C4G U8A G12A G48A C62U", "qualitative-label": "Not fulfilled"}
{"variant-key": "U19G A21U C29G", "qualitative-label": "Fulfilled"}
{"variant-key": "A14C A21U C24A A37U A45U", "qualitative-label": "Not fulfilled"}
{"variant-key": "A15G G17C C33A C46A G52A G63C", "qualitative-label": "Not fulfilled"}
{"variant-key": "A21C A43G C60G A65G", "qualitative-label": "Not fulfilled"}
{"variant-key": "A15G C30G C55A", "qualitative-label": "Not fulfilled"}
{"variant-key": "U8C U19A A57C U64A", "qualitative-label": "Not fulfilled"}
{"variant-key": "C11U A70G", "qualitative-label": "Fulfilled"}
{"variant-key": "A15G G44U A57U G58A C66G", "qualitative-label": "Not fulfilled"}
{"variant-key": "G9A U26C A36U G39A", "qualitative-label": "Not fulfilled"}
{"variant-key": "C5U G18A U28A G56A C61G", "qualitative-label": "Fulfilled"}
{"variant-key": "U32A U54A", "qualitative-label": "Not fulfilled"}
{"variant-key": "C4A C49U C55A C66U", "qualitative-label": "Not fulfilled"}
